System: adriamycin-resistant subline (P388/ADR)
ASSAY_NAME: inhibition of growth rate of adriamycin-resistant subline P388/ADR
Format: cell-based, murine
SETTINGS: Mus musculus, P388/ADR, P388/ADR cells, compound alone; read-out: B: IC50 for the adriamycin-resistant subline (P388/ADR)
Where a name gives a salt, the structure may show the parent alone.
QUANTITY_NAME: IC50 (µM)
All answers are understood in µM, so give the number only.

Examples with their reported IC50 follow.
Ask: Can you look up the measured IC50 of CCCC(C(=O)OCCN1CCN(CCOC(=O)C(CCC)c2ccc(OC)c(OC)c2)CC1)c1ccc(OC)c(OC)c1 (stereo not drawn) [Compound 1850, dihydrochloride] for me?
Result: 20

Ask: Return reported IC50; argument: CCCCC(C(=O)OCCN1CCN(CCOC(=O)C(CCCC)c2ccc(OC)c(OC)c2)CC1)c1ccc(OC)c(OC)c1 (stereo not drawn) [Compound 1849, dihydrochloride]
Result: 10

Ask: # IC50 lookup, item CCC(C(=O)OCCN1CCN(CCOC(=O)C(CC)c2ccc(Cl)cc2)CC1)c1ccc(Cl)cc1 (stereo not drawn) [Compound 1778, dihydrochloride]
Result: 20

Ask: Value lookup for IC50; key = CCC(C(=O)OCCN1CCN(CCOC(=O)C(CC)c2ccccc2)CC1)c1ccccc1.Cl.Cl (stereo not drawn) [Compound 480, dihydrochloride]
Result: 60

Ask: For the compound shown here, CC(C(=O)OCCN1CCN(CCOC(=O)C(C)(c2ccccc2)c2ccccc2)CC1)(c1ccccc1)c1ccccc1 [Compound 1854, dihydrochloride] , give the reported IC50.
Result: 45

***
Ask: Tell me the measured IC50 of Cc1cccc(C)c1NC(=O)CCN1CCN(CCOC(=O)C(c2ccccc2)c2ccccc2)CC1 [Compound 1853, dihydrochloride] , please.
Result: 60

Ask: Using the record for CCC(C(=O)OCCCN1CCN(CCCOC(=O)C(CC)c2ccccc2)CC1)c1ccccc1 (stereo not drawn) [Compound 1843] , report its IC50.
Result: 8

Ask: Entry CCC(C(=O)OCCN1CCN(CCOC(=O)C(CC)c2ccccc2F)CC1)c1ccccc1F (stereo not drawn) [Compound 1775, dihydrochloride] : reported IC50 = ?
Result: 60

Ask: Consider the compound shown here: CCCC(C(=O)OCCN1CCN(CCOC(=O)C(CCC)c2ccccc2)CC1)c1ccccc1 (stereo not drawn) [Compound 1838] What is its recorded IC50?
Result: 20

Ask: I have this compound here, CCC(C(=O)OCCN1CCN(CCOC(=O)C(CC)c2ccc(OC)c(OC)c2)CC1)c1ccc(OC)c(OC)c1.Cl.Cl (stereo not drawn) [Compound 1835, dihydrochloride] , and I need its recorded IC50.
Result: 120

The origin of these recorded values is patent US5190946A.
